- Assay remarks: in vivo
- Test context: both, Sprague-Dawley, rat, plasma, po, 200 mg/kg per day
Measurement label: Cmax

I am curious: what Cmax value has been reported for CCOc1ccc(Cc2cc([C@@H]3O[C@H](CO)[C@@H](O)[C@H](O)[C@H]3O)ccc2Cl)cc1 ?
63 to 74 µg/mL

Values were extracted from paper PMC4065287.
